# Assay details: Single oral dose plasma pharmacokinetics in healthy subjects
# Type: in vivo, human
# Assay setup: human, 1000 ug; healthy subjects, single oral dose 1000 μg, fasted, plasma; median; read-out: Tmax
Recorded endpoint: Tmax (h)

{"columns": ["Compound", "Recorded endpoint", "Obs value"],
 "data": [
  ["O=C(O)c1cc(F)c2nc(N3C4CC[C@H]3CC(OCc3c(-c5ccccc5OC(F)(F)F)noc3C3CC3)C4)sc2c1 (stereo partly shown)", "Tmax", 4]
]}

###

# Assay details: Pharmacokinetics in the chronic 2 week rat ANIT-induced cholestasis model
# Format: in vivo
# Assay setup: male, Wistar, po, 0.05 mg/kg, day 13, serum
Recorded endpoint: Cmax

{"columns": ["Molecule", "Recorded endpoint", "Obs value"],
 "data": [
  ["O=C(O)c1cc(F)c2nc(N3C4CC[C@H]3CC(OCc3c(-c5ccccc5OC(F)(F)F)noc3C3CC3)C4)sc2c1 (stereo partly shown)", "Cmax", "2.28 ng/mL"]
]}
